Target: Protein cereblon/3-hydroxy-3-methylglutaryl-coenzyme A reductase (Cricetulus griseus, UniProt P00347+G3H338)
Sequence (P00347 whole entry): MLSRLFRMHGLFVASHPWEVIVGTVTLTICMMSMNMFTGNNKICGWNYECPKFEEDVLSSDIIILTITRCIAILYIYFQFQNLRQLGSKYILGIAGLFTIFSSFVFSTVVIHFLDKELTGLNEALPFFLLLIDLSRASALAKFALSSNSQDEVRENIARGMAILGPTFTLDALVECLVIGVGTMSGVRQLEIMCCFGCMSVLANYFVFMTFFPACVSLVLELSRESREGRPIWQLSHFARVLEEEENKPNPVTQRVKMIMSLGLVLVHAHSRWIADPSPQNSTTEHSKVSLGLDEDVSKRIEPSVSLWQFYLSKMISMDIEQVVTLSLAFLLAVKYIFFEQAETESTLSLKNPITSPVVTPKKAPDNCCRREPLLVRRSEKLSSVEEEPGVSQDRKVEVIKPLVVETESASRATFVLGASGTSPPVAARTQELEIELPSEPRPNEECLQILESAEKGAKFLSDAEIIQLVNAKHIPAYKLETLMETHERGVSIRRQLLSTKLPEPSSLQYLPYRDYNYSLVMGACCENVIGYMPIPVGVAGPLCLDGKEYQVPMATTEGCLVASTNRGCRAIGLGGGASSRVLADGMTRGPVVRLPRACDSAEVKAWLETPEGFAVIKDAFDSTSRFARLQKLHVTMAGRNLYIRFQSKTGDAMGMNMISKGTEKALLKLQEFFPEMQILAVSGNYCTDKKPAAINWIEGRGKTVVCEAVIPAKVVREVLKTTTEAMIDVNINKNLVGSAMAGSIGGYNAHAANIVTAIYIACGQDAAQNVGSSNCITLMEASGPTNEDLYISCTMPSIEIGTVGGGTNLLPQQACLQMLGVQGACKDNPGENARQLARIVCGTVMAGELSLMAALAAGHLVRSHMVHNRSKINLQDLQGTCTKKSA
Sequence (G3H338 whole entry): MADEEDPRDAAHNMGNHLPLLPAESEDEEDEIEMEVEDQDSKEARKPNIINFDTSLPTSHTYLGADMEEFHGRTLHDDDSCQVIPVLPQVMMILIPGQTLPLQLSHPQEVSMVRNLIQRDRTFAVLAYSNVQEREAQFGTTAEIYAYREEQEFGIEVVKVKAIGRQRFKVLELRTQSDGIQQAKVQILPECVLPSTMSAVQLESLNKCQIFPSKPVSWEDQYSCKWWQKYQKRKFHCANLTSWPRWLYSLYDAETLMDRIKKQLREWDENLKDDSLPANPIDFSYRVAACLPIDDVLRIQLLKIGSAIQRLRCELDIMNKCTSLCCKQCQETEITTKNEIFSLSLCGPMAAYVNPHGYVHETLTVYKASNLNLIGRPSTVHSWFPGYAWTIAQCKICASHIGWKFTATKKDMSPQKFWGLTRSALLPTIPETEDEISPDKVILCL
Test: Protac activity at CRBN/HMGCR in Insig-1/Insig-2 deficient Chinese hamster SRD15 cells assessed as induction of HMGCR degradation after 16 hrs by immunoblotting analysis
property.label: DC50 (nM)

>>> experimental_value("CC(C)c1c(C(=O)Nc2ccccc2)c(-c2cccc(OCCCc3cn(CCCCCCCOCC#Cc4cccc5c4CN(C4CCC(=O)NC4=O)C5=O)nn3)c2)c(-c2ccc(F)cc2)n1CC[C@@H](O)C[C@@H](O)CC(=O)O (stereo partly drawn)")
700

[I] CC(C)c1c(C(=O)Nc2ccccc2)c(-c2cccc(OCCCCCCCc3cn(CCCCCCCNc4cccc5c4C(=O)N(C4CCC(=O)NC4=O)C5=O)nn3)c2)c(-c2ccc(F)cc2)n1CC[C@@H](O)C[C@@H](O)CC(=O)O (stereo partly drawn)
[II] CC(C)c1c(C(=O)Nc2ccccc2)c(-c2cccc(OCCCCCc3cn(CCOCCNc4cccc5c4C(=O)N(C4CCC(=O)NC4=O)C5=O)nn3)c2)c(-c2ccc(F)cc2)n1CC[C@@H](O)C[C@@H](O)CC(=O)O (stereo partly drawn)
Select the item whose DC50 value is smaller, choosing between I and II . Use the label to indicate which entry you chose.
I

[1] CC(C)c1c(C(=O)Nc2ccccc2)c(-c2cccc(OCCCCCc3cn(CCOCCOCCOCCOCCOCCNc4cccc5c4C(=O)N(C4CCC(=O)NC4=O)C5=O)nn3)c2)c(-c2ccc(F)cc2)n1CC[C@@H](O)C[C@@H](O)CC(=O)O (stereo partly drawn)
[2] CC(C)c1c(C(=O)Nc2ccccc2)c(-c2cccc(OCCCCCc3cn(CCCCCCCNc4cccc5c4C(=O)N(C4CCC(=O)NC4=O)C5=O)nn3)c2)c(-c2ccc(F)cc2)n1CC[C@@H](O)C[C@@H](O)CC(=O)O (stereo partly drawn)
Select the item whose DC50 value is smaller, choosing between 1 and 2 . Use the label to indicate which entry you chose.
2
